FYI, the data here is from patent US20100216823A1.

Biological target: PDE1C (Homo sapiens)
Construct: cell lysate containing full length PDE7A, PDE7B and PDE1C enzyme
Sequence (Q14123 whole entry): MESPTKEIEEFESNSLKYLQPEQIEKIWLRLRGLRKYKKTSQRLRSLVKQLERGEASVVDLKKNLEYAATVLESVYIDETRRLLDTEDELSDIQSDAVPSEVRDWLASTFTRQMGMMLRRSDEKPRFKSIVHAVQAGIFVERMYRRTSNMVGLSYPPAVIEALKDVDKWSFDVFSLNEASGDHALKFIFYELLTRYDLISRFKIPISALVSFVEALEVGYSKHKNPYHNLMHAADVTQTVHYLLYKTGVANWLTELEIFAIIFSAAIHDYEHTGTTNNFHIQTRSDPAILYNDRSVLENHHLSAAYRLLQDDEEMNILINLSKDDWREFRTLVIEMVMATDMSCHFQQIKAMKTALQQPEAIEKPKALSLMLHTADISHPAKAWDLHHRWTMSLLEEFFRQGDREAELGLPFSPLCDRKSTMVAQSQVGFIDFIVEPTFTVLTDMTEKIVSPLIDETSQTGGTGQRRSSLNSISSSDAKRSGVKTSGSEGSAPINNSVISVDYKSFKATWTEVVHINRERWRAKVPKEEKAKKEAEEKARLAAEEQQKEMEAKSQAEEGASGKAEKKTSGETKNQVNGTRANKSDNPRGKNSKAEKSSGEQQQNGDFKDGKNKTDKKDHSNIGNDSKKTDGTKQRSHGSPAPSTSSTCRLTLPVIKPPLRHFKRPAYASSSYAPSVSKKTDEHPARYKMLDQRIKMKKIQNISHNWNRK
Test: PDE1C [3H]-cAMP scintillation proximity assay (SPA) enzyme inhibition
Conditions: full length PDE1C in cell lysate; 75 nM cAMP; Ki from IC50 by Cheng-Prussof equation
metric: Ki (µM)
Give your result in µM as a bare value.

Consider the following illustrative entries.
- O=C1Nc2c(Cl)ccc(Oc3ccc(F)cc3-c3nnn[nH]3)c2C2(CCCC2)N1: 0.862
- CS(=O)(=O)NC(=O)c1cccc(F)c1Oc1ccc(Cl)c2c1C1(CCCCC1)NC(=O)N2: 0.657
- O=C1Nc2c(Cl)ccc(Oc3c(Cl)cccc3-c3nn[nH]n3)c2C2(CCCC2)N1: 1.08
- O=C1Nc2c(Cl)ccc(-c3ccc(F)c(-c4nn[nH]n4)c3)c2C2(CCCCC2)N1: 1.56
- O=C1Nc2c(Cl)ccc(Oc3ccccc3-c3nn[nH]n3)c2C2(CCCC2)N1: 0.778
- O=C1Nc2c(Cl)ccc(Oc3c(F)cccc3C(=O)O)c2C2(CCCC2)N1: 2.26

[ask] What value of measured Ki is listed for `O=C1Nc2c(Cl)ccc(Oc3ccccc3-c3nnn[nH]3)c2C2(CCCCC2)N1` ?
[reply] 0.037

---

Target: PDE7B (Homo sapiens, UniProt Q9NP56)
Construct: cell lysate containing full length PDE7A, PDE7B and PDE1C enzyme
Sequence (Q9NP56 whole entry): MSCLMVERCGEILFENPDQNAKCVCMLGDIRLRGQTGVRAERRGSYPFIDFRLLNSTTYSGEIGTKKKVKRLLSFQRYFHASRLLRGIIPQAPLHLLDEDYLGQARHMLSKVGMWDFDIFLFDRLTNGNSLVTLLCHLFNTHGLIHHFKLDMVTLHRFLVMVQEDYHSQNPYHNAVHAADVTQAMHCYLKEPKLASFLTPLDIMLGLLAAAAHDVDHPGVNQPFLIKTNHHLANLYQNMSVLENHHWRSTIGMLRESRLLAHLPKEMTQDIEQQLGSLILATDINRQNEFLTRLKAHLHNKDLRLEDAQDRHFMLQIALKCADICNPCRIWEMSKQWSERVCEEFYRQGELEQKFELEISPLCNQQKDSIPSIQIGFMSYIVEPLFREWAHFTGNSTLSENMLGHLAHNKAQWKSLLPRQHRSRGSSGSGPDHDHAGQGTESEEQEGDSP
Assay: PDE7B [3H]-cAMP scintillation proximity assay (SPA) enzyme inhibition
Details: full length PDE7B in cell lysate; ~25 nM cAMP; Ki from IC50 by Cheng-Prussof equation
metric: pKi
Note: pKi values are expressed as the negative base-10 logarithm of concentration in M.

• O=C1Nc2c(Cl)ccc(Oc3ccccc3-c3nn[nH]n3)c2C2(CCCC2)N1 = 8.01
• O=C1Nc2c(Cl)ccc(-c3cccc(C(=O)O)c3)c2C2(CCCCC2)N1 = 7.92
• O=C1Nc2c(Cl)ccc(Oc3c(Cl)cccc3C(=O)O)c2C2(CCCCC2)N1 = 8.03
• O=C1Nc2c(Cl)ccc(Oc3c(Cl)cccc3-c3nn[nH]n3)c2C2(CCCC2)N1 = 8.18
• O=C(O)COc1ccc(Oc2ccc(Cl)c3c2C2(CCCCC2)NC(=O)N3)cc1 = 7.96

[ask] Find the measured pKi: item `CS(=O)(=O)NC(=O)c1cccc(F)c1Oc1ccc(Cl)c2c1C1(CCCCC1)NC(=O)N2` , target or system PDE7B (Homo sapiens, UniProt Q9NP56).
[reply] 8.15

[ask] Give recorded pKi with PDE7B (Homo sapiens, UniProt Q9NP56) for the following compound: `O=C1Nc2c(Cl)ccc(Oc3c(F)cccc3C(=O)O)c2C2(CCCC2)N1`
[reply] 7.68

[ask] Fill in the recorded pKi for this compound, with PDE7B (Homo sapiens, UniProt Q9NP56) as test system: `O=C1Nc2c(Cl)ccc(-c3ccc(C(=O)O)c(F)c3)c2C2(CCCCC2)N1`
[reply] 7.00

[ask] Query pKi on PDE7B (Homo sapiens, UniProt Q9NP56) for `O=C(O)COc1ccccc1Oc1ccc(Cl)c2c1C1(CCCCC1)NC(=O)N2`
[reply] 8.72

[ask] What measured pKi is associated with `O=C1Nc2c(F)ccc(Oc3c(Cl)cccc3C(=O)O)c2C2(CCCCC2)N1` on PDE7B (Homo sapiens, UniProt Q9NP56)?
[reply] 7.39

[ask] Given the entry `O=C1Nc2c(Cl)ccc(Oc3c(F)cccc3NS(=O)(=O)C(F)(F)F)c2C2(CCCCC2)N1` , what pKi was observed with PDE7B (Homo sapiens, UniProt Q9NP56)?
[reply] 8.62

[ask] Form entry - test system: PDE7B (Homo sapiens, UniProt Q9NP56); read-out: pKi; compound: `O=C1Nc2c(Cl)ccc(Oc3c(F)cccc3-c3n[nH]c(=O)[nH]3)c2C2(CCCCC2)N1`
[reply] 8.82

[ask] Recall the recorded pKi for `O=C1Nc2c(Cl)ccc(Oc3ccc(F)cc3-c3nn[nH]n3)c2C2(CCCCC2)N1` with PDE7B (Homo sapiens, UniProt Q9NP56) and state it.
[reply] 9.00

[ask] Lookup: pKi / PDE7B (Homo sapiens, UniProt Q9NP56) / `O=C1Nc2c(F)ccc(Oc3c(F)cccc3-c3nn[nH]n3)c2C2(CCCCC2)N1`
[reply] 9.15

[ask] Give PDE7B (Homo sapiens, UniProt Q9NP56) pKi for `O=C1Nc2c(Cl)ccc(Oc3c(F)cccc3-c3nn[nH]n3)c2C2(CCCCC2)N1`
[reply] 9.40

[ask] Missing value: pKi, PDE7B (Homo sapiens, UniProt Q9NP56), entry `O=C1Nc2c(Cl)ccc(Oc3ccc(F)cc3-c3nnn[nH]3)c2C2(CCCC2)N1` . Fill in?
[reply] 8.14

[ask] Checklist item: pKi tested on PDE7B (Homo sapiens, UniProt Q9NP56), entry O=C1Nc2c(Cl)ccc(OCc3ccc(C(=O)O)o3)c2C2(CCCCC2)N1 [Compound C, reference compound] , value?
[reply] 7.48
